- targetOrSystem: human MMP-9 (gelatinase B) (Homo sapiens, UniProt P14780)
- Construct: endogenous in cells; host or cells: HT1080 human fibrosarcoma cells (ATCC CCL-121), PMA-stimulated; enzyme purified from the culture supernatant
- Sequence (P14780 107-707 limits assumed): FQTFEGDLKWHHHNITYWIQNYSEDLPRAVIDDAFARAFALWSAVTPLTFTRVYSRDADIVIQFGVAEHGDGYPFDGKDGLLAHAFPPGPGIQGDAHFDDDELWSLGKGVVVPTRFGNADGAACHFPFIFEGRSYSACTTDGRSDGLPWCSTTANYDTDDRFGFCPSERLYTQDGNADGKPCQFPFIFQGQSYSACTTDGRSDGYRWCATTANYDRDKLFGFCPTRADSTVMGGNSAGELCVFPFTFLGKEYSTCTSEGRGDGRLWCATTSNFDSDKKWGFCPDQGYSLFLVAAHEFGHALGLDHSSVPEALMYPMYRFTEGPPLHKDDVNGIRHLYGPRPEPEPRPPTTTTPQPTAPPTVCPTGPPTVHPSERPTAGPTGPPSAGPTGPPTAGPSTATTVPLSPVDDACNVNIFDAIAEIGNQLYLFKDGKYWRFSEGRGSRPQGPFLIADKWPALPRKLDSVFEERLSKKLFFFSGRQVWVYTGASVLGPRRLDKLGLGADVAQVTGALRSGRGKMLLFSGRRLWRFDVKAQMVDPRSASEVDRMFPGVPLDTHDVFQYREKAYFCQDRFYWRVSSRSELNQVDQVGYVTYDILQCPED
- experiment: Inhibition activity against human MMP-9 (gelatinase B), fluorescent peptide substrate
- Type: biochemical
- measurementContext: compounds of the formula (I); average of 1st and 2nd (or single measurement); read-out: MMP-9 inhibition activities IC50, Average
pIC50: −log10 of the molar value.
recordedMetric: pIC50

# count of solved cases: 2
Please report the recorded pIC50 for CCCCOCCOc1cc(C(F)(F)F)cc(NNC(=C[N+](=O)[O-])NC)n1 . 4.96

So what's the measured pIC50 for this one? Cc1nn(C)c(C)c1NC(=C[N+](=O)[O-])NN 4.44

A: Cc1cc(C)c(S(C)(=O)=O)c(NNC(=C[N+](=O)[O-])NS(C)(=O)=O)n1
B: CNC(=C[N+](=O)[O-])NNc1cccc(C)c1
C: CNC(=C[N+](=O)[O-])NNc1ccc(C(F)(F)F)cn1
Could you please order the items by pIC50, going from the lowest number to the highest? A complete answer lists every label in the requested sequence. B, C, A
(B: 4.30, C: 4.93, A: 5.20)

###

recordedMetric: melting point

Illustrative cases are given below, each with its answer.
I'd like to know its melting point. The molecule in question is CNC(=C[N+](=O)[O-])NN=Cc1ccc(Cl)cc1 [compound 136] 186 °C (dec.)

Please report the recorded melting point for CNC(=C[N+](=O)[O-])NN(C)c1ccc(C(F)(F)F)cn1 [compound 36] . 153 to 154 °C

Looking for the measured melting point of CNC(=C[N+](=O)[O-])NNc1cccc(C)c1 [Compound No. 15] , can you help? 189 °C (dec.)

Fill in the blank: the reported melting point of NNC(=C[N+](=O)[O-])Nc1cccnc1 [compound 50] is ____. 175 °C (dec.)

Sample CNC(=C[N+](=O)[O-])NNc1ccnc2cc(C(F)(F)F)ccc12 [compound 147] — what was its melting point? 235 °C (dec.)

---
Any idea what its melting point is? The molecule is CNC(=C[N+](=O)[O-])NN=Cc1ccc(C)cc1 [compound 137] 172 °C (dec.)

Fill blank: measured melting point of the molecule CNC(=C[N+](=O)[O-])NNc1cc(C(F)(F)F)cc(OCC(F)(F)F)n1 [compound 181] is ____. 180 °C (dec.)

State the recorded melting point for this entry: CNC(=C[N+](=O)[O-])NN=Cc1ccc(C(=O)O)cc1 [compound 142] 210 °C (dec.)

Fill in the blank: the reported melting point of CCOc1ccc(NC(=C[N+](=O)[O-])NN)cc1 [compound 70] is ____. 198 °C (dec.)

Returns the measured melting point for the input molecule. Input: CNC(=C[N+](=O)[O-])NN(C)c1cccc(C(F)(F)F)n1 [compound 39] 191 to 192 °C (dec.)

Form field: reported melting point of NNC(=C[N+](=O)[O-])Nc1ccccc1 [compound 87] 153 °C (dec.)

What does the data say about its melting point? Entry: CSC(=C[N+](=O)[O-])Nc1ccc2cn[nH]c2c1 [Intermediate 55] 214 to 216 °C

Quick check: melting point of NNC(=C[N+](=O)[O-])NC1CCCCC1 [compound 86] ? 196 °C (dec.)

Look up melting point: CSC(=C[N+](=O)[O-])Nc1ccc(F)cc1 [Intermediate 21] 156 °C

Field request: melting point | item: CSC(=C[N+](=O)[O-])Nc1c(C)nn(C)c1C [Intermediate 54] 184 to 188 °C

Which melting point reading was recorded for the molecule CNC(=C[N+](=O)[O-])NNc1nc(OC)nc(OC)n1 [compound 104] ? 202 to 203 °C (dec.)

Look up melting point for this molecule: CSc1ccc(NC(=C[N+](=O)[O-])NN)cc1 [compound 72] 177 °C (dec.)

// lookup melting point for CNC(=C[N+](=O)[O-])NNc1cccc(Cl)c1 [Compound No. 9] 191 °C (dec.)

Would you kindly share the measured melting point for CCOC(=O)c1ccc(NC(=C[N+](=O)[O-])NN)cc1 [compound 74] ? 155 °C (dec.)

Report melting point for CNC(=C[N+](=O)[O-])NNc1ccc(OC)cc1 [compound 17] please. 168 °C (dec.)

###

- targetOrSystem: human MMP-9 (gelatinase B) (Homo sapiens, UniProt P14780)
- Construct: endogenous in cells; host or cells: HT1080 human fibrosarcoma cells (ATCC CCL-121), PMA-stimulated; enzyme purified from the culture supernatant
- experiment: Inhibition activity against human MMP-9 (gelatinase B), fluorescent peptide substrate
- Format: biochemical
- measurementContext: intermediates, compounds of the formula (IV); average of 1st and 2nd (or single measurement); read-out: MMP-9 inhibition activities IC50, Average
pIC50: −log10 of the molar value.
recordedMetric: pIC50

The examples below pair each entry with its known result.
Could you tell me which pIC50 is on file for COc1cccc(NC(=C[N+](=O)[O-])SC)c1 [Intermediate 20] ? 4.35

Endpoint output: pIC50 of CONC(=C[N+](=O)[O-])SC [Intermediate 63] . Value? 5.37

Quick one: pIC50 for CSC(=C[N+](=O)[O-])NC1CC1 [Intermediate 2] ? 4.34

Which pIC50 reading was recorded for the molecule CSC(=C[N+](=O)[O-])Nc1ccc(Cl)cc1 [Intermediate 19] ? 4.48

Find the recorded pIC50 belonging to CSC(=C[N+](=O)[O-])Nc1ccc2c(c1)OCO2 [Intermediate 51] and report it. 4.54

So what does the record say about pIC50 for CSC(=C[N+](=O)[O-])NS(=O)(=O)c1ccc2ccccc2c1 [Intermediate 61] ? 5.09

1: CCOC(=O)c1ccc(NC(=C[N+](=O)[O-])SC)cc1 [Intermediate 50]
2: CCS(=O)(=O)NC(=C[N+](=O)[O-])SC [Intermediate 59]
3: CSC(=C[N+](=O)[O-])NS(=O)(=O)c1ccc(-c2ccccc2)cc1 [Intermediate 62]
4: CSC(=C[N+](=O)[O-])Nc1ccc2c(c1)C(=O)CO2 [Intermediate 52]
Falling order of pIC50, please. Answer by writing out the labels in the requested order. 3, 2, 1, 4
(3: 5.35, 2: 4.94, 1: 4.53, 4: 4.25)

###

Quick reference: IC50 of the listed items.
- targetOrSystem: human MMP-7 (Homo sapiens, UniProt P09237)
- Sequence (P09237 95-267): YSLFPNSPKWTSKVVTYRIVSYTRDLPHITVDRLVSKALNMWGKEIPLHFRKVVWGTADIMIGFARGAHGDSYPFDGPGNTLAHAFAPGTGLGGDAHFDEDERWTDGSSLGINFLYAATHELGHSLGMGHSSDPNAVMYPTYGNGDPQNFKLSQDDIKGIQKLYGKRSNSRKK
Give the value, in units of µM, as a plain number.

Please report the recorded IC50 for CS(=O)(=O)NC(=C[N+](=O)[O-])NNc1cc(C(F)(F)F)cc(Cl)n1 . 16.5

Which IC50 is listed for CCOCCOc1cc(C(F)(F)F)cc(NNC(=C[N+](=O)[O-])NS(C)(=O)=O)n1 ? 12

What value of measured IC50 is listed for CNC(=C[N+](=O)[O-])NNc1cc(C(F)(F)F)cc(Cl)n1 ? 24.5

Could you share which IC50 value was measured for CCOCCOc1cc(C(F)(F)F)cc(NNC(=C[N+](=O)[O-])NC)n1 ? 18.7

###

- targetOrSystem: human MMP-9 (gelatinase B) (Homo sapiens)
- Construct: endogenous in cells; host or cells: HT1080 human fibrosarcoma cells (ATCC CCL-121), PMA-stimulated; enzyme purified from the culture supernatant
- experiment: Inhibition activity against human MMP-9 (gelatinase B), fluorescent peptide substrate
- Type: biochemical
- measurementContext: intermediates, compounds of the formula (IV); 1st measurement; read-out: MMP-9 inhibition activities IC50, 1st
pIC50: −log10 of the molar value.
recordedMetric: pIC50

Below: 4 compounds and their reported pIC50.
What does the data say about its pIC50? Entry: COc1cccc(NC(=C[N+](=O)[O-])SC)c1 [Intermediate 20] 4.41

Sample CNC(=C[N+](=O)[O-])SC [Intermediate 5] — what was its pIC50? 4.57

Which pIC50 is listed for CSC(=C[N+](=O)[O-])Nc1ccc([N+](=O)[O-])cc1 [Intermediate 11] ? 4.75

Need pIC50, item CSC(=C[N+](=O)[O-])NS(C)(=O)=O (single isomer, unassigned) [Intermediate 64] 5.36

I: CSC(=C[N+](=O)[O-])NS(=O)(=O)c1ccc(-c2ccccc2)cc1 [Intermediate 62]
II: CSC(=C[N+](=O)[O-])Nc1ccc(O)cc1 [Intermediate 12]
III: CSC(=C[N+](=O)[O-])NS(C)(=O)=O [Intermediate 57]
IV: CSC(=C[N+](=O)[O-])NS(=O)(=O)c1ccc2ccccc2c1 [Intermediate 61]
Put the entries in order of pIC50, starting with the largest number. When ranking, write the labels in the order the request describes. I, IV, II, III

1: CSC(=C[N+](=O)[O-])NC(C)C [Intermediate 10]
2: CONC(=C[N+](=O)[O-])SC [Intermediate 63]
3: CSC(=C[N+](=O)[O-])Nc1ccc2c(c1)C(=O)CO2 [Intermediate 52]
Arrange these compounds by their pIC50, starting with the largest number. The response must list the labels following the requested ordering. 2, 1, 3
(2: 5.37, 1: 4.57, 3: 4.21)
